tested on: LPS-induced microglia activation; test: Image-based assay of LPS-induced microglia activation (HTS and dose response); type: cell-based, rat; conditions: Rattus norvegicus, Microglia, 48 h, primary microglia HTS, LPS stimulation; increased cell size (>800 μm^2) as marker of activation; read-out: LPS % inhibition
Where a SMILES comes first, the peptide text is derived from it. Bridges are numbered along the chain shown (N, C = ends). [ ]: non-standard residue; d: D form. The star is where a group is joined. Ileψ(thiazoline)Cys = CC[C@H](C)[C@H](N)C1=N[C@H](C(=O)*)CS1; dOrn = NCCC[C@@H](N)C(=O)O
Note to self: values exactly at 20% are criterion met. So inhibition at 10 µM at or above 20% is criterion met, below is criterion not met.

{"Compound": "CO[C@@H]1[C@@H](OC(N)=O)[C@@H](O)[C@H](Oc2ccc3c(O)c(NC(=O)c4ccc(O)c(CC=C(C)C)c4)c(=O)oc3c2C)OC1(C)C", "Assay system": "LPS-induced microglia activation", "Class assignment": "criterion not met"}
{"Compound": "CC(C)NCC(O)c1cc(O)cc(O)c1 (centres unmarked)", "Assay system": "LPS-induced microglia activation", "Class assignment": "criterion met"}
{"Compound": "CN1CCN2c3ncccc3Cc3ccccc3C2C1 (centres unmarked) [Mirtazapine, reference compound]", "Assay system": "LPS-induced microglia activation", "Class assignment": "criterion met"}
{"Compound": "CC[C@H](C)[C@H](N)C1=N[C@H](C(=O)N[C@@H](CC(C)C)C(=O)N[C@H](CCC(=O)O)C(=O)N[C@H](C(=O)N[C@H]2CCCCNC(=O)[C@H](CC(N)=O)NC(=O)[C@@H](CC(=O)O)NC(=O)[C@H](Cc3cnc[nH]3)NC(=O)[C@@H](Cc3ccccc3)NC(=O)[C@H]([C@@H](C)CC)NC(=O)[C@@H](CCCN)NC2=O)[C@@H](C)CC)CS1 [Bacitracin, reference compound] ({Ileψ(thiazoline)Cys}-L[dE]IK[dOrn]I[dF]H[dD]N; lactam 4-C)", "Assay system": "LPS-induced microglia activation", "Class assignment": "criterion met"}
{"Compound": "C[C@@H]1CN(c2c(F)c(F)c3c(=O)c(C(=O)O)cn(C4CC4)c3c2F)C[C@H](C)N1", "Assay system": "LPS-induced microglia activation", "Class assignment": "criterion not met"}

====

test system: primary rat microglia; conditions: rat
Structures can show the parent of a compound that is named as a salt.
Property name: LPS % cell toxicity (%)

{"Molecule": "CCCCc1ncc(/C=C(\\Cc2cccs2)C(=O)O)n1Cc1ccc(C(=O)O)cc1", "Assay value": 0}
{"Molecule": "C[C@@H](CO)NC(=O)[C@@H]1C=C2c3cccc4[nH]cc(c34)C[C@H]2N(C)C1 [Ergonovine]", "Assay value": 0}
{"Molecule": "NC(=O)OCC(COC(N)=O)c1ccccc1 [Felbamate]", "Assay value": 0}
{"Molecule": "O=C1CC2(CCCC2)CC(=O)N1CCCCN1CCN(c2ncccn2)CC1", "Assay value": 0}
{"Molecule": "CC(=O)N(O)CCCCCNC(=O)CCC(=O)N(O)CCCCCNC(=O)CCC(=O)N(O)CCCCCN", "Assay value": 0}
{"Molecule": "CC(CCc1ccc(O)cc1)NCCc1ccc(O)c(O)c1 (centres unmarked) [Dobutamine]", "Assay value": 0}
{"Molecule": "COC(=O)N[C@H](C(=O)N[C@@H](Cc1ccccc1)[C@@H](O)CN(Cc1ccc(-c2ccccn2)cc1)NC(=O)[C@@H](NC(=O)OC)C(C)(C)C)C(C)(C)C", "Assay value": 1}
{"Molecule": "CCOc1ccc(NC(C)=O)cc1", "Assay value": 0}
{"Molecule": "C[C@@H]1C[C@@H]([C@H](O)CC2CC(=O)NC(=O)C2)C(=O)[C@@H](C)C1 [Cycloheximide]", "Assay value": 45}
{"Molecule": "Fc1ccc([C@@H]2CCNC[C@H]2COc2ccc3c(c2)OCO3)cc1", "Assay value": 0}
{"Molecule": "CCC1=C(C)CN(C(=O)NCCc2ccc(S(=O)(=O)NC(=O)N[C@H]3CC[C@H](C)CC3)cc2)C1=O [Glimepiride]", "Assay value": 0}
{"Molecule": "CN(C)CCC(c1ccc(Cl)cc1)c1ccccn1 (centres unmarked)", "Assay value": 0}
{"Molecule": "Clc1ccc2nsnc2c1NC1=NCCN1", "Assay value": 1}
{"Molecule": "C[C@@H](CO)NC(=O)[C@@H]1C=C2c3cccc4[nH]cc(c34)C[C@H]2N(C)C1 [Ergonovine Maleate]", "Assay value": 0}
{"Molecule": "O=C1CN(/N=C/c2ccc(-c3ccc([N+](=O)[O-])cc3)o2)C(O)=N1", "Assay value": 0}
{"Molecule": "CCc1nc(N)nc(N)c1-c1ccc(Cl)cc1", "Assay value": 1}
{"Molecule": "CC1CNc2c(cccc2S(=O)(=O)N[C@@H](CCCNC(=N)N)C(=O)N2CC[C@@H](C)C[C@@H]2C(=O)O)C1 (some centres unmarked)", "Assay value": 0}

====

system: LPS-induced microglia activation; assay: Image-based assay of LPS-induced microglia activation (HTS and dose response); assay type: cell-based, rat; details: Rattus norvegicus, Microglia, primary HTS, 10 μM, LPS-stimulated primary microglia; read-out: LPS % inhibition
Note to self: values exactly at 8% are true. So inhibition at 10 µM at or above 8% is true, below is false.

{"Compound": "C=CC1=C(C(=O)O)N2C(=O)[C@@H](NC(=O)/C(=N\\O)c3csc(N)n3)[C@H]2SC1", "Class assignment": "true"}
{"Compound": "COC(=O)N/N=C/c1c[n+]([O-])c2ccccc2[n+]1[O-]", "Class assignment": "true"}
{"Compound": "C[N+]12CCC(CC1)C(OC(=O)C(O)(c1ccccc1)c1ccccc1)C2 (stereo not drawn) [Clidinium Bromide]", "Class assignment": "true"}
{"Compound": "CO/N=C(\\C(=O)N[C@@H]1C(=O)N2C(C(=O)[O-])=C(C[N+]3(C)CCCC3)CS[C@H]12)c1csc(N)n1 [Cefepime]", "Class assignment": "false"}
{"Compound": "Cn1nnnc1SCC1=C(C(=O)O)N2C(=O)[C@@H](NC(=O)[C@H](O)c3ccccc3)[C@H]2SC1 [Cefamandole Sodium]", "Class assignment": "true"}
{"Compound": "CN(C)CCN(Cc1ccc(Cl)cc1)c1ccccn1", "Class assignment": "true"}
{"Compound": "Oc1ccc(Cl)c2c1CCC2", "Class assignment": "true"}
{"Compound": "CC(C)(C)NCC(O)COc1cccc2c1CCC(=O)N2 (stereo not drawn)", "Class assignment": "false"}
{"Compound": "O=C(O)CCNC(=O)c1ccccc1", "Class assignment": "true"}
{"Compound": "CC1(C)S[C@@H]2[C@H](NC(=O)Cc3ccccc3)C(=O)N2[C@H]1C(=O)O", "Class assignment": "true"}
{"Compound": "O=C1c2ccccc2C(=O)C1c1ccc(Br)cc1", "Class assignment": "true"}
{"Compound": "CN1CCN(C(c2ccccc2)c2ccc(Cl)cc2)CC1 (stereo not drawn)", "Class assignment": "false"}
{"Compound": "CC(C)(C)CC(C)(C)c1ccc(O)c(Cc2ccc(Cl)cc2Cl)c1", "Class assignment": "false"}
{"Compound": "CCCC(=O)Nc1ncnc2c1ncn2[C@@H]1O[C@@H]2COP(=O)(O)O[C@H]2[C@H]1OC(=O)CCC", "Class assignment": "true"}
{"Compound": "CC(C)/N=c1\\cc2n(-c3ccc(Cl)cc3)c3ccccc3nc-2cc1Nc1ccc(Cl)cc1", "Class assignment": "true"}
{"Compound": "CN(C)CCC(c1ccc(Cl)cc1)c1ccccn1 (stereo not drawn)", "Class assignment": "true"}

====

tested on: fibrin-induced microglia activation; experiment: Image-based assay of fibrin-induced microglia activation (HTS and dose response); type: cell-based, rat; settings: Rattus norvegicus, Microglia, read-out: Fibrin IC50 (uM) (Suppl. Table 7)
Structures can show the parent of a compound that is named as a salt.

{"Compound": "NC(=O)c1ncn([C@@H]2O[C@H](CO)[C@@H](O)[C@H]2O)n1 [Ribavirin, reference compound]", "IC50 / µM": 1}
{"Compound": "OCc1cc(C(O)CNCCCCCCOCCCCc2ccccc2)ccc1O (stereo not drawn) [Salmeterol, reference compound]", "IC50 / µM": 1}
{"Compound": "CNCCC=C1c2ccccc2CCc2ccccc21 [Nortriptyline hydrochloride, reference compound]", "IC50 / µM": 13}

====

system: fibrin-induced microglia activation; experiment: Image-based assay of fibrin-induced microglia activation (HTS and dose response); format: cell-based, rat; settings: Rattus norvegicus, Microglia, read-out: Fibrin IC50 (uM)
Counter-ions that a name gives are not always drawn.
Property name: IC50 (µM)

{"Compound": "CNCCC=C1c2ccccc2CCc2ccccc21 [Nortriptyline hydrochloride, reference compound]", "Prefix operator": "=", "Assay value": 13}
{"Compound": "C[C@@H](O)[C@H]1C(=O)N2C(C(=O)O)=C(SCCN=CN)C[C@H]12 [Imipenem, reference compound]", "Prefix operator": ">", "Assay value": 20}
{"Compound": "OCc1cc(C(O)CNCCCCCCOCCCCc2ccccc2)ccc1O (stereo not drawn) [Salmeterol, reference compound]", "Prefix operator": "=", "Assay value": 1}
{"Compound": "NC(=O)c1ncn([C@@H]2O[C@H](CO)[C@@H](O)[C@H]2O)n1 [Ribavirin, reference compound]", "Prefix operator": "=", "Assay value": 1}
{"Compound": "C#CCN[C@@H]1CCc2ccccc21 [Rasagiline, reference compound]", "Prefix operator": "=", "Assay value": 20}
{"Compound": "CCCSc1ccc2nc(NC(=O)OC)[nH]c2c1 [Albendazole, reference compound]", "Prefix operator": "=", "Assay value": 4}
